The measured values listed here are drawn from patent US20150105252A1.

# Test system: foxtail, giant
# Assay: Test C postemergence
# Type: in vivo, Setaria faberii
# Cond: postemergence; 125 g ai/ha; scale 0 to 100, 0 no effect, 100 complete control
Recorded endpoint: Plant response rating, Foxtail, Giant
One number for each entry.

Cc1cc(C(=O)NCC(F)(F)F)nn1Cc1ccnc(C(F)(F)F)c1	10

// input: 4 compounds below; output: Plant response rating, Foxtail, Giant for each
1. CCCc1cc(C(=O)NC(C)C)nn1Cc1cc(C(F)(F)F)nn1C
2. O=C(NC1CC1)c1cc(CCCl)n(Cc2ccnc(C(F)(F)F)c2)n1
3. CCc1cc(C(=O)NCC(F)(F)F)nn1Cc1cc(C(F)(F)F)nn1C
4. CCONC(=O)c1cc(CC)n(Cc2cccc(OC(F)(F)F)c2)n1

1. 30
2. 15
3. 40
4. 5

Kindly give each listed record's Plant response rating, Foxtail, Giant.
1. CCc1cc(C(=O)NOC(C)C)nn1Cc1cccc(OC(F)(F)F)c1
2. CCCc1cc(C(=O)NC2CC2)nn1Cc1ccnc(OC(F)F)c1
3. CCc1cc(C(=O)NCC(F)(F)F)nn1Cc1nc(C(F)(F)F)nn1C
4. CCc1cc(C(=O)NCC(F)(F)F)nn1Cc1ccnc(SC(F)(F)F)c1

[15, 70, 55, 15]
